TESTED_TARGET: T1, COVID S1 RBM Fc fusion (Antigen 2) (SARS-CoV-2, UniProt P0DTC2 437-508)
T1 construct: domain: RBM
PROCEDURE_SUMMARY: phage ELISA
MEASURED_PARAMETER: specificity ELISA, percent binding relative to Acro S1 (%)

- BINDER: "SARS-CoV-2 variant 1-31 (antibody, V domains shown) VH: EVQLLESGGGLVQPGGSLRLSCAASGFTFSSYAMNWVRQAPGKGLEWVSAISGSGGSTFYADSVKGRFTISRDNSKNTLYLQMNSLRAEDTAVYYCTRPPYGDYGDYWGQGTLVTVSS VL: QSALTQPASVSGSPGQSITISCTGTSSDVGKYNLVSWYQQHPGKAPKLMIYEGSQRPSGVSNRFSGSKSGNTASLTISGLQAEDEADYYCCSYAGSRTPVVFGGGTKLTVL"
  MEASURED: 3.8
- BINDER: "SARS-CoV-2 variant 1-44 (antibody, V domains shown) VH: EVQLLESGGGLVQPGGSLRLSCAASGFTFSSQAMSWVRQAPGKGLEWVTAISGSGGGTYYADSVKGRFTISRDNSKNTLYLQMNSLRAEDTAVYYCAKDRKFGEFDPWGQGTLVTVSS VL: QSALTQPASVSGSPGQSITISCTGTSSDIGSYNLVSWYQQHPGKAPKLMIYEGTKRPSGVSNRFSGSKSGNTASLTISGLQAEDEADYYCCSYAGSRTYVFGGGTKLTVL"
  MEASURED: 7.6
- BINDER: "SARS-CoV-2 variant 1-4 (antibody, V domains shown) VH: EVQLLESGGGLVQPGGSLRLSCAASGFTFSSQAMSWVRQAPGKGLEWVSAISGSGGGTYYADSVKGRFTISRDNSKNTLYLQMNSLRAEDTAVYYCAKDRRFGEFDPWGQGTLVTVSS VL: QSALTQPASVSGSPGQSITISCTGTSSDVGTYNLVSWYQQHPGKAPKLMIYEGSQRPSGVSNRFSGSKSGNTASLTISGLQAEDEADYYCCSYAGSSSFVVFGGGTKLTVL"
  MEASURED: 105

Data credit: patent US20210395344A1
